Tested on: Brassica napus
Test: Herbicidal activity against Brassica napus (oilseed rape) assessed as inhibition of herb growth at 1.5 kg/ha during postemergence treatment protocol
Type: functional
Details: post-emergence, read-out: GI
endpoint.label: inhibition of growth at 1500 g/ha (%)

smiles.repr | recorded.number
CCOCCOC(=O)/C(C#N)=C(\NCc1cnc2ccccc2c1)C(C)C | 100
CCOCCOC(=O)/C(C#N)=C(/CC)NCc1nc(-c2ccc(F)cc2)no1 | 0
CCOCCOC(=O)/C(C#N)=C(\NCc1ncc(C)o1)SC | 10
CCOCCOC(=O)/C(C#N)=C(\NCc1coc(-c2cccc(Cl)c2)n1)C(C)C | 80.5
CCOCCOC(=O)/C(C#N)=C(\NCc1ccc2ncccc2c1)C(C)C | 73.7
CCOCCOC(=O)/C(C#N)=C(\NCc1ccc2ncccc2c1)SC | 100
CCOCCOC(=O)/C(C#N)=C(\NCc1ccc2ccccc2n1)C(C)C | 72
CCOCCOC(=O)/C(C#N)=C(\NCc1coc(-c2cccc(Cl)c2)n1)SC | 25.4
CCOCCOC(=O)/C(C#N)=C(\NCc1coc(-c2ccccc2)n1)SC | 34.7
CCOCCOC(=O)/C(C#N)=C(\NCc1coc(-c2ccccc2)n1)C(C)C | 87.3
CCOCCOC(=O)/C(C#N)=C(\NCc1ncc(C(C)C)o1)SC | 5
CCOCCOC(=O)/C(C#N)=C(\NCc1nc(-c2ccc(C(F)(F)F)cc2)no1)SC | 100
CCOCCOC(=O)/C(C#N)=C(\NCc1nc(-c2ccc(F)cc2)no1)C(C)C | 100
CCOCCOC(=O)/C(C#N)=C(/CC)NCc1ccc2ccccc2n1 | 8.5
CCOCCOC(=O)/C(C#N)=C(\NCc1cnc2ccccc2c1)SC | 100
CCOCCOC(=O)/C(C#N)=C(\NCc1ccc2ccccc2n1)SC | 35.6
CCOCCOC(=O)/C(C#N)=C(\NCc1nc(-c2ccc(C(F)(F)F)cc2)no1)C(C)C | 100
CCOCCOC(=O)/C(C#N)=C(\NCc1nc(-c2ccc(F)cc2)no1)SC | 15
CCOCCOC(=O)/C(C#N)=C(\NCc1ncc(C(C)C)o1)C(C)C | 100
